biological target: HLA-B*08:01; experiment: IEDB peptide-MHC binding, purified MHC/direct/fluorescence; filed as Kd, often an IC50 or EC50 that approximates it; bounds were set here for any values at or beyond the usual limits of such assays; details: source organism: Rickettsia typhi
Property: Kd

**Query** Form field: reported Kd of APILVVSGI
**Result** ≥ 20 µM

---

biological target: HLA-A*02:01; test: IEDB peptide-MHC binding, purified MHC/competitive/fluorescence; filed as Kd, often an IC50 or EC50 that approximates it; bounds were set here for any values at or beyond the usual limits of such assays; details: source organism: Human alphaherpesvirus 1 strain 17
Property: Kd (nM)
Field: numeric (nM). Do not append units.

**Query** Form field: reported Kd of FLTCTDRSV
**Result** 83

Taken from the Immune Epitope Database (IEDB).
